Provide the recorded Inhibition for the entries that follow.
- Tested on: Thanatephorus cucumeris
- protocolSummary: Antifungal activity against Rhizoctonia solani at 1 mmol after 48 hrs relative to control
- Format: functional
Returns: string containing the numeric result and its unit.

Examples from the recorded data:
CCn1c(-c2ccccc2)c(C(c2cn(-c3ccccc3)nc2-c2ccc(Cl)cc2)c2c(-c3ccccc3)n(CC)c3ccccc23)c2ccccc21 | 18.8%
CCn1c(-c2ccccc2)c(C(c2cn(-c3ccccc3)nc2-c2ccc(Br)cc2)c2c(-c3ccccc3)n(CC)c3ccccc23)c2ccccc21 | 16.7%
Brc1ccc(-c2nn(-c3ccccc3)cc2C(c2c[nH]c3ccc(Br)cc23)c2c[nH]c3ccc(Br)cc23)cc1 | 81.1%
Clc1ccc(-c2nn(-c3ccccc3)cc2C(c2c[nH]c3ccc(Br)cc23)c2c[nH]c3ccc(Br)cc23)cc1 | 17.8%
O=[N+]([O-])c1ccc2[nH]cc(C(c3cn(-c4ccccc4)nc3-c3ccccc3)c3c[nH]c4ccc([N+](=O)[O-])cc34)c2c1 | 0%

Dear colleague, could you send me Inhibition for each of the items below? Thanks.
1. COc1ccc(-c2nn(-c3ccccc3)cc2C(c2c[nH]c3ccc([N+](=O)[O-])cc23)c2c[nH]c3ccc([N+](=O)[O-])cc23)cc1
2. Brc1ccc2[nH]cc(C(c3cn(-c4ccccc4)nc3-c3ccccc3)c3c[nH]c4ccc(Br)cc34)c2c1

Ans.
1: 53.3%; 2: 41.1%

* * *

Exercise: state measured Inhibition for each of the compounds provided.
- Test system: Curvularia lunata
- protocolSummary: Antifungal activity against Curvularia lunata at 1 mmol after 48 hrs relative to control
- Assay type: functional
Quick note: unit goes after the number.

Solved entries:
CCn1c(-c2ccccc2)c(C(c2cn(-c3ccccc3)nc2-c2ccc(Cl)cc2)c2c(-c3ccccc3)n(CC)c3ccccc23)c2ccccc21 | 42.2%
O=[N+]([O-])c1ccc2[nH]cc(C(c3cn(-c4ccccc4)nc3-c3ccccc3)c3c[nH]c4ccc([N+](=O)[O-])cc34)c2c1 | 0%
Brc1ccc2[nH]cc(C(c3cn(-c4ccccc4)nc3-c3ccccc3)c3c[nH]c4ccc(Br)cc34)c2c1 | 47.8%
Clc1ccc(-c2nn(-c3ccccc3)cc2C(c2c[nH]c3ccc(Br)cc23)c2c[nH]c3ccc(Br)cc23)cc1 | 15.6%
CCn1c(-c2ccccc2)c(C(c2cn(-c3ccccc3)nc2-c2ccc(Br)cc2)c2c(-c3ccccc3)n(CC)c3ccccc23)c2ccccc21 | 13.3%

Answer for every listed entry: what is its Inhibition? The entries follow.
1. COc1ccc(-c2nn(-c3ccccc3)cc2C(c2c[nH]c3ccc([N+](=O)[O-])cc23)c2c[nH]c3ccc([N+](=O)[O-])cc23)cc1
2. Brc1ccc(-c2nn(-c3ccccc3)cc2C(c2c[nH]c3ccc(Br)cc23)c2c[nH]c3ccc(Br)cc23)cc1

Ans.
1: 84.4%; 2: 91.1%

* * *

- Test system: Candida albicans
- protocolSummary: Antimicrobial activity against Candida albicans at 1 mmol after 48 hrs
- Format: functional
observable: inhibition zone (IZ) (cm)
Numbers only, in cm.

Clc1ccc(-c2nn(-c3ccccc3)cc2C(c2c[nH]c3ccc(Br)cc23)c2c[nH]c3ccc(Br)cc23)cc1 | 0.6

Value sought for every listed compound: inhibition zone (IZ).
1. CCn1c(-c2ccccc2)c(C(c2cn(-c3ccccc3)nc2-c2ccc(Cl)cc2)c2c(-c3ccccc3)n(CC)c3ccccc23)c2ccccc21
2. COc1ccc(-c2nn(-c3ccccc3)cc2C(c2c[nH]c3ccc([N+](=O)[O-])cc23)c2c[nH]c3ccc([N+](=O)[O-])cc23)cc1
3. O=[N+]([O-])c1ccc2[nH]cc(C(c3cn(-c4ccccc4)nc3-c3ccccc3)c3c[nH]c4ccc([N+](=O)[O-])cc34)c2c1
4. Brc1ccc2[nH]cc(C(c3cn(-c4ccccc4)nc3-c3ccccc3)c3c[nH]c4ccc(Br)cc34)c2c1
5. COc1ccc(-c2nn(-c3ccccc3)cc2C(c2c[nH]c3ccc(Br)cc23)c2c[nH]c3ccc(Br)cc23)cc1
6. CCn1c(-c2ccccc2)c(C(c2cn(-c3ccccc3)nc2-c2ccc(Br)cc2)c2c(-c3ccccc3)n(CC)c3ccccc23)c2ccccc21

Ans.
[0.5, 0, 0, 2.7, 0, 0]

Qu. So what does the record say about inhibition zone (IZ) for Brc1ccc(-c2nn(-c3ccccc3)cc2C(c2c[nH]c3ccc(Br)cc23)c2c[nH]c3ccc(Br)cc23)cc1 ?
Ans. 2.2
